What TGI was measured for each of the following?
System: HOP-92 NSCLC
test-protocol: NCI tumour cell line growth inhibition, 48 h

// query TGI value for entry Cc1nc2nnc(C)n2c2c1C(=O)Nc1ccccc1N2
> 100 µM

// query TGI value for entry CCOC(=O)C1C(=O)CC(O)(c2ccccc2)C(C(=O)OCC)C1c1ccc(OC)cc1 (stereo not given)
> 82 µM

// query TGI value for entry NS(=O)(=O)c1ccc(-n2nc(-c3ccc(Br)cc3)ccc2=O)cc1
> 10 µM

// query TGI value for entry CC(C)CCNC(=O)c1ccc(CNC(=O)/C=C/c2ccc(OCc3ccccc3)cc2)cc1
> 100 µM

// query TGI value for entry CCOC(=O)CCCO
> 100 µM

====

Test system: NCI-H460 lung
test-protocol: NCI tumour cell line growth inhibition, 48 h
What TGI was measured for each of the following?

// query TGI value for entry O=[N+]([O-])c1ccc(NSc2ccccc2)cc1
> 100 µM

// query TGI value for entry Cc1c(Cl)cccc1Nc1ncccc1C(=O)O
> 100 µM

// query TGI value for entry O=[N+]([O-])C(=C(Sc1ccccc1)Sc1ccccc1)C(Cl)=C(Cl)Cl
16.6 µM

// query TGI value for entry COc1ccc(NC2Oc3cc4c(cc3C(c3cc(OC)c(OC)c(OC)c3)C2C)OCO4)cc1 (stereo not drawn)
> 48.5 µM

// query TGI value for entry C(=Nc1ccc(-c2nc3ccccc3s2)cc1)c1ccco1
> 100 µM

// query TGI value for entry O=C1CSC(N2CCN(c3cccc(Cl)c3)CC2)=N1
> 100 µM

// query TGI value for entry CC1(C)N=C(N)N=C(N)N1c1ccc(CCCCc2ccc(S(=O)(=O)F)cc2Cl)c(Cl)c1
80.8 µM

// query TGI value for entry COc1cc2c(NCCCCCCO[N+](=O)[O-])ncnc2c(OC)c1OC
69.8 µM

// query TGI value for entry O=c1c2cc(I)ccc2[nH]c(=S)n1Cc1ccccc1
> 100 µM

// query TGI value for entry N#Cc1cnn2ccn(C3OC(COC(=O)c4ccccc4)C(OC(=O)c4ccccc4)C3OC(=O)c3ccccc3)c12 (stereo not drawn)
> 21.5 µM

// query TGI value for entry CC1=C(CCCOC(=O)NCCCl)C2=C(C)C3(CC3)[C@@](C)(O)C(=O)C2=C1
13.6 µM

// query TGI value for entry COc1ccc(CN2CCCC(C(=O)c3ccc(C(F)(F)F)cc3)C2)c(O)c1 (stereo not drawn)
> 100 µM

// query TGI value for entry COc1cc2c(cc1O)[C@H](Cc1ccc(Oc3cc(C[C@H]4c5cc(OC)c(OC)cc5CCN4C)ccc3OC)cc1)NCC2
27.7 µM

// query TGI value for entry Cc1cccc(C[C@@]2(SCc3ccccc3)C(C)(C)[C@@H]3CC[C@@]2(C)C3)n1
31.3 µM

// query TGI value for entry CC(C)/C(Cl)=N\OC(=O)NNc1ccccc1
> 100 µM

// query TGI value for entry CC(=O)c1ccc(N(/C=C/C(=O)C(F)(F)F)CC(=O)c2ccc(Cl)c(Cl)c2)cc1
> 100 µM

// query TGI value for entry NC1(CCCCCCCCCCC(=O)O)CNCCNCCNCCNC1
86.4 µM

// query TGI value for entry c1ccc(N=c2snc(-c3ccccc3)s2)cc1
> 100 µM

====

System: OVCAR-4 ovarian
test-protocol: NCI tumour cell line growth inhibition, 48 h
test-readout: TGI

// query TGI value for entry Cc1oc2nc(N(C)C)n3nnnc3c2c1C
> 100 µM

// query TGI value for entry O=C(O)Cc1ccc2nc(COC(=O)c3ccccc3)sc2c1
> 100 µM

// query TGI value for entry O=C1CSC(N2CCN(c3cccc(Cl)c3)CC2)=N1
> 100 µM

====

System: M14 melanoma
test-protocol: NCI tumour cell line growth inhibition, 48 h
test-readout: TGI

Request - read-out TGI | tested on M14 melanoma | molecule C1CN2N3CCCC23C1 (stereo unspecified)
> 100 µM

Request - read-out TGI | tested on M14 melanoma | molecule COc1nc2c(cc1S(=O)(=O)c1ccccc1)CCc1c-2cnn1-c1ccccc1Cl
> 100 µM

Request - read-out TGI | tested on M14 melanoma | molecule C[C@@H]1Cc2c([nH]c3ccccc23)[C@@H](c2c(F)cc(/C=C/C(=O)O)cc2F)N1CC(C)(C)F
34.5 µM

Request - read-out TGI | tested on M14 melanoma | molecule O=C1/C(=C/c2ccc(F)cc2)CNC/C1=C\c1ccc(F)cc1
4.35 µM

Request - read-out TGI | tested on M14 melanoma | molecule CC1=C[C@@H]2Cc3occc3C(C)(C)[C@@H]2CC1
47.1 µM

Request - read-out TGI | tested on M14 melanoma | molecule N#Cc1c(OCCF)c2ccccc2n2c1nc1ccccc12
> 100 µM

Request - read-out TGI | tested on M14 melanoma | molecule OCCNCO
> 100 µM

Request - read-out TGI | tested on M14 melanoma | molecule C#CC(C)(C)Oc1cc(O)c2c(=O)c3ccccc3n(C)c2c1
> 100 µM

Request - read-out TGI | tested on M14 melanoma | molecule Cc1nc2ccc([N+](=O)[O-])cc2c(=O)n1C(=S)Nc1cccc(Cl)c1
53.6 µM

Request - read-out TGI | tested on M14 melanoma | molecule COc1cccc(C2c3cc4c(cc3OC(N3CCCC3)C2C)OCO4)c1OC (stereo unspecified)
23.8 µM

Request - read-out TGI | tested on M14 melanoma | molecule CN1CCN(C(=S)N(C)C(=O)c2ccc(Cl)cc2)CC1
> 100 µM

Request - read-out TGI | tested on M14 melanoma | molecule Cc1cc(O)cc(O)c1N=Nc1ccc([N+](=O)[O-])cc1
> 100 µM

Request - read-out TGI | tested on M14 melanoma | molecule OCc1c(-c2cccc3ccccc23)sc(-c2cccc3ccccc23)c1CO
28.9 µM

Request - read-out TGI | tested on M14 melanoma | molecule O=C1CSC(N2CCN(c3cccc(Cl)c3)CC2)=N1
> 100 µM

Request - read-out TGI | tested on M14 melanoma | molecule COc1cc2c(c(OC)c1OC)-c1ccc(NCc3ccccc3)c(=O)cc1[C@@H](NC(C)=O)CC2
23.2 µM

Request - read-out TGI | tested on M14 melanoma | molecule Cn1cc(C2=C(c3ccc(OC[C@@H](O)CO)cc3)C(=O)NC2=O)c2ccccc21
> 25 µM

Request - read-out TGI | tested on M14 melanoma | molecule c1ccc2c(c1)CCCN1CCc3ccccc3C21 (stereo unspecified)
> 100 µM

Request - read-out TGI | tested on M14 melanoma | molecule CN=C1NC(=O)/C(=C/c2ccc3ncccc3c2)S1
> 25 µM

Request - read-out TGI | tested on M14 melanoma | molecule C(=Nc1ccc(-c2nc3ccccc3s2)cc1)c1ccco1
> 100 µM

Request - read-out TGI | tested on M14 melanoma | molecule Cc1cccc2c3ccc4c(c3n(C)c12)C(=O)C=CC4=O
> 100 µM

Request - read-out TGI | tested on M14 melanoma | molecule CCOC(=O)c1cc(-c2ccc([N+](=O)[O-])cc2)n(-c2ccc(C(=O)O)c(O)c2)c1C
15.2 µM

====

Tested on: OVCAR-4 ovarian
test-protocol: NCI tumour cell line growth inhibition, 48 h
What TGI was measured for each of the following?

// query TGI value for entry CN=C1NC(=O)/C(=C/c2ccc3ncccc3c2)S1
> 25 µM

// query TGI value for entry C/C(=N/NC(=S)Nc1cccc(C)c1)c1ccccn1
8.93 µM

// query TGI value for entry COC(c1ccc(C(C)(C)C)cc1)(c1ccc(C(C)(C)C)cc1)c1cc(C(O)(c2cc(C(OC)(c3ccc(C(C)(C)C)cc3)c3ccc(C(C)(C)C)cc3)c(C)cc2C)c2cc(C(OC)(c3ccc(C(C)(C)C)cc3)c3ccc(C(C)(C)C)cc3)c(C)cc2C)c(C)cc1C
> 100 µM

// query TGI value for entry COc1ccc(N=Cc2cc(OC)c(OC)c(OC)c2)cc1
> 100 µM

// query TGI value for entry O=C(CCc1ccc(O)cc1)c1c(O)cc(O)cc1OC1OC(CO)C(O)C(O)C1O (stereo unspecified)
> 100 µM

// query TGI value for entry CC[n+]1ccc2c(c1)C(=O)c1nccc3c1c-2nc1ccccc13
4.1 µM

// query TGI value for entry O=C1C(Br)=Cc2c(Cl)sc(Cl)c21
8.81 µM

// query TGI value for entry O=C(O[C@H](/C=C/c1ccccc1)P1(=O)N(Cc2ccccc2)[C@@H]2CCCC[C@H]2N1Cc1ccccc1)c1ccccc1
6.19 µM

// query TGI value for entry O=[N+]([O-])C(=C(Sc1ccccc1)Sc1ccccc1)C(Cl)=C(Cl)Cl
1.46 µM

// query TGI value for entry Cc1cccc(C(C)(C)C)c1NC(=O)C(=O)Cc1nc2ccccc2s1
> 100 µM

// query TGI value for entry O=C1/C(=C/c2ccc(Br)s2)NC(=S)N1CN1CCOCC1
> 100 µM
